These entries and their values trace back to paper PMC5454392.

# SYSTEM NAME: T1, CaBdf1 BD2 (GST-tagged, wild-type) (Candida albicans (strain SC5314 / ATCC …, UniProt Q5A4W8))
# T1 chain: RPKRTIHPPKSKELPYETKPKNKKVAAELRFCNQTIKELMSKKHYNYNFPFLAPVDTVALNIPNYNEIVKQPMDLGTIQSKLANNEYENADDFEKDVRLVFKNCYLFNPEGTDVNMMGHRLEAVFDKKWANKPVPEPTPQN
# TEST METHOD NOTES: histone peptide array (Active Motif MODified), 1 uM GST-tagged bromodomain, anti-GST detection, normalized mean intensity
Square brackets hold non-standard residues; d marks the D form. Ends that are not written are not given here. pT = C[C@@H](OP(=O)(O)O)[C@H](N)C(=O)O; pS = N[C@@H](COP(=O)(O)O)C(=O)O; Me2a = not defined here
READOUT: binding score

{"BINDER": "ARTKQTARKSTGGKAPRKQ (A R T K Q T A R Kme2 S pT G G K A P R K Q)", "MEASURED RESULT": 0.00185}
{"BINDER": "PRKQLATKAARK(Me3)SAPATGG [H3 16-35]", "MEASURED RESULT": 0.00851}
{"BINDER": "AR[pT]K(Me3)QTARKSTGGKAPRKQ", "MEASURED RESULT": 0.00296}
{"BINDER": "AR(Me2a)[pT]K(Ac)QTARKSTGGKAPRKQ (reading uncertain)", "MEASURED RESULT": 0.00111}
{"BINDER": "ARTKQTARKSTGGKAPRKQ (A Rme2s T Kac Q T A R Kme3 S T G G K A P R K Q)", "MEASURED RESULT": 0.00259}
{"BINDER": "ARTKQTARKSTGGKAPRKQ (A R T K Q T A Rme2a Kme3 pS T G G K A P R K Q)", "MEASURED RESULT": 0.00333}
{"BINDER": "[pS]GRGK(Ac)QGGK(Ac)ARAKAKSRSS [H2a 1-19]", "MEASURED RESULT": 0.00925}
